Each recorded value in this set is attributed to PubChem BioAssay (NCI).

# System: CAKI-1 renal
# assay: NCI tumour cell line growth inhibition, 48 h
Where a SMILES comes first, the peptide text is derived from it. [ ]: non-standard residue; d: D form. pGlu = O=C1CC[CH](C(=O)O)N1
Entries and their TGI values follow.

compound: O=C1c2ccccc2N(O)C1(c1ccccc1)C1CCCC=C1N1CCOCC1 (stereo not drawn)
TGI: > 100 µM

compound: CC1CCN(C(C)C)P(=S)(Cc2ccccc2)O1 (stereo not drawn)
TGI: > 100 µM

compound: NCCCCC(NC(=O)C(N)CCCN=C(N)N)C(=O)NC(CCCCN)C(=O)NC(CCCN=C(N)N)C(=O)NC(CCCN=C(N)N)C(=O)NC(CCC(N)=O)C(=O)NC(CCCN=C(N)N)C(=O)NC(CCCN=C(N)N)C(=O)NC(CCCN=C(N)N)C(=O)NCC(=O)NCC(=O)O (stereo not drawn)
TGI: > 50 µM

compound: Cc1ccc(NCC2(/N=C/c3ccccc3)OC(CO)C(O)C2O)cc1 (stereo not drawn)
TGI: > 100 µM

compound: COc1ccc(/[N+]([O-])=C/c2ccc(OC(=S)S)c(OC)c2)cc1
TGI: 66.7 µM

compound: Cc1ncn(-c2ccccc2O)c1C
TGI: > 100 µM

compound: O=C1C(Cl)=C(Cl)C(=O)C(CCNc2nccs2)=C1Cl
TGI: 37.1 µM

compound: COc1ccc(C2CC(c3c(O)ccc4ccccc34)=NN2)cc1OC (stereo not drawn)
TGI: 58.4 µM

compound: CC1(C)N=C(N)N=C(N)N1c1ccc(CNC(=O)Nc2ccc(S(=O)(=O)F)c(Cl)c2)c(Cl)c1
TGI: > 100 µM

compound: CC(NC(=O)C1CCC(=O)N1)C(=O)N1CCCC1C(N)=O (stereo not drawn) ([pGlu]-Ala-Pro-NH2; configuration not given here)
TGI: > 100 µM

compound: O=S(=O)(O)c1ccc(N=Nc2ccccc2)cc1
TGI: > 100 µM

compound: CO/C=C(/C(=O)OC)[C@@H]1C[C@@H]1c1ccc2ccccc2c1
TGI: 66 µM

compound: S=C(NCc1ccccc1)Nc1sc(=NCc2ccccc2)nc2sc3c(c12)CCN(N1CCc2c(sc4nc(=NCc5ccccc5)sc(NC(=S)NCc5ccccc5)c24)C1)C3
TGI: > 75.9 µM

compound: Cc1c(Cn2c(C)nc3c(C(=O)O)cc(N4CCOCC4)cc32)cccc1C(F)(F)F
TGI: > 100 µM

compound: O=c1[nH]c(Nc2ccc(Br)c(C(F)(F)F)c2)nc2nc[nH]c12
TGI: > 100 µM

compound: C[C@@H]1C[C@H](N)C[C@H](c2ccncc2NC(=O)c2ccc(F)c(-c3c(F)cccc3F)n2)C1
TGI: > 10 µM

compound: CCOC(=O)c1[nH]c2cc(Cl)ccc2c1[C@@H](C(=O)NC(C)(C)C)N(CC)C(=O)CCCCC#Cc1cccc2c1CN(C1CCC(=O)NC1=O)C2=O (stereo partly drawn)
TGI: 8.62 µM

compound: COc1cc2nc(Nc3cccc(Cl)c3)nc(N)c2cc1OC
TGI: 27.9 µM

---

# Tested on: HCT-15 colon
# assay: NCI tumour cell line growth inhibition, 48 h
Entries and their TGI values follow.

compound: Cc1cc(OCc2nnc3n2S(=O)(=O)c2ccccc2N3C)ccc1Cl
TGI: > 100 µM
//
compound: COc1ccc2c(c1)c(-c1nc(-c3cn(C)c4ccncc34)cs1)cn2C
TGI: 3.33 µM
//
compound: CCOC(=O)c1c(O)cn2c1[nH]c1cccc3cccc2c31
TGI: > 100 µM
//
compound: COc1ccc(CCN2CCN(CCCc3ccccc3)CC2)cc1
TGI: > 100 µM
//
compound: COc1ccc(/C=C2\N=C(N3CCCC(CO)C3)NC2=O)cc1 (stereo unspecified)
TGI: > 100 µM
//
compound: O=[N+]([O-])c1nccn1CC(O)c1ccccc1 (stereo unspecified)
TGI: > 100 µM
//
compound: O=S(=O)(N=C1C(Cl)=C(Cl)C(=NS(=O)(=O)c2ccccc2)C(Cl)=C1Cl)c1ccccc1
TGI: > 100 µM
//
compound: CCOC(=O)c1[nH]c2cc(Cl)ccc2c1[C@@H](C(=O)NC(C)(C)C)N(CC)C(=O)CCCCC#Cc1cccc2c1CN(C1CCC(=O)NC1=O)C2=O (stereo partly specified)
TGI: > 33.2 µM
//
compound: O=C(Cc1ccc2ccccc2c1)NCc1ccc(C(=O)NCCc2ccccc2)cc1
TGI: > 100 µM
//
compound: Nc1nc(Cl)cc(NCC2(CCO)CCC2)n1
TGI: > 100 µM
//
compound: CCOC(=O)C(=Cc1ccc(C#N)cc1)C(=O)OCC
TGI: 6.17 µM
//
compound: CCOC(=O)CNC(=O)C(CCC(=O)N(C)O)NC(=O)CCC(N)C(=O)O (stereo unspecified)
TGI: > 100 µM
//
compound: CC(C)(C)C(=O)N1C(C(=O)O)Cc2ccccc2[C@@H]1Cc1ccccc1 (stereo partly specified)
TGI: > 100 µM
//
compound: CCOC(=O)c1c(N)sc2c1CC(C)CC2 (stereo unspecified)
TGI: > 100 µM
//
compound: CC(=O)O.CN1[CH-]N(Cc2ccc(C#N)cc2)c2ccccc21.[Ag+]
TGI: 38 µM
//
compound: NS(=O)(=O)c1ccc(NC(=O)N/N=C/c2ccccc2[N+](=O)[O-])cc1
TGI: > 100 µM
//
compound: Cc1cc(N(CCC#N)CCC#N)ccc1/C(N=Nc1ccc([N+](=O)[O-])cc1)=N\NC(=O)c1cc(Cl)ccc1O
TGI: > 100 µM
//
compound: O=P1(c2ccccc2)C(c2ccccc2)CCC1c1ccccc1 (stereo unspecified)
TGI: > 100 µM
//
compound: S=C(NCc1ccccc1)Nc1sc(=NCc2ccccc2)nc2sc3c(c12)CCN(N1CCc2c(sc4nc(=NCc5ccccc5)sc(NC(=S)NCc5ccccc5)c24)C1)C3
TGI: > 66.7 µM
//
compound: COc1c2c(c3c(c1OC)c(=O)c1ccccc1n3C)OCO2
TGI: > 100 µM
//
compound: Fc1cccc(COc2ccc(Nc3ncnc4onc(-c5ccccc5)c34)cc2)c1
TGI: > 100 µM

---

# Test system: MDA-MB-435
# assay: NCI tumour cell line growth inhibition, 48 h
measured-quantity: TGI

compound: Cc1ccc(S(=O)(=O)n2cc(C=O)c(-c3cn(S(=O)(=O)c4ccc(C)cc4)cc3-c3cn(S(=O)(=O)c4ccc(C)cc4)cc3C=O)c2)cc1
result: > 100 µM
--
compound: COc1ccc(NC(=O)Oc2ccc3c(C)cc(=O)oc3c2)c(OC)c1 (tested in a mixture with another compound)
result: > 100 µM
--
compound: Cc1ccc2c(c1)nc1n2C(c2c(F)cccc2F)SC1 (stereo unspecified)
result: > 100 µM
--
compound: CN(C)Cc1cc(Cl)c(O)c(CN(C)C)c1
result: > 100 µM
--
compound: COC(=O)CCc1ccc(CCC(=O)OC)cc1
result: > 100 µM
--
compound: CSc1ccc(C2=NN(C(C)=O)C(c3ccc(-c4cc(Cl)c(Cl)cc4Cl)o3)C2)cc1 (stereo unspecified)
result: 36.4 µM
--
compound: COc1ccc(/C=N\N(C)Cc2cccc3ccsc23)cc1
result: > 100 µM
--
compound: COc1ccc2cc(-c3cnc4nonc4n3)ccc2c1
result: 3.35 µM
--
compound: COc1ccc2c(c1)c1c3c(ccc4ncn2c43)N(CCO)CCN=1
result: 0.834 µM
--
compound: COC1OC2COC1(OCc1ccccc1)C1OC(C)(C)OC21 (stereo unspecified)
result: > 100 µM
--
compound: CN(C)c1ccc(/C=N/NC(N)=S)nc1
result: > 100 µM
--
compound: CC1=C([Te]c2ccccc2)C(=O)c2ccccc2C1=O
result: 4.02 µM
--
compound: COc1ccc2c(c1)c(-c1nc(-c3cn(C)c4ccncc34)cs1)cn2C
result: 2.97 µM
--
compound: NC(=O)CC1OC(=O)Cc2cc3c(c(O)c21)C(=O)c1c(O)cccc1C3=O (stereo unspecified)
result: > 100 µM
--
compound: COc1ccc(S(=O)(=O)Nc2ccc(-c3csc(N4C(=O)/C(=C/c5ccccc5[N+](=O)[O-])N=C4c4ccccc4)n3)cc2)cc1Cl
result: > 100 µM
--
compound: Cc1cc(N(CCC#N)CCC#N)ccc1/C(N=Nc1ccc([N+](=O)[O-])cc1)=N\NC(=O)c1cc(Cl)ccc1O
result: > 100 µM
--
compound: CC(C)C1CSC2N1C(=O)C2(OCc1ccccc1)C1CC1 (stereo unspecified)
result: > 100 µM
--
compound: Cc1ccc(CNc2ccc3nc(CCC4CCCCC4)[nH]c3c2)cc1
result: 4.85 µM
--
compound: CC(C)(C)C1=C(Br)C(F)(C(C)(C)C)OP1(=O)c1ccccc1 (stereo unspecified)
result: 29.9 µM
--
compound: Cn1c(-c2ccco2)ccc1-c1ccc(C=O)o1
result: > 100 µM
--
compound: COc1c2c(c3c(c1OC)c(=O)c1ccccc1n3C)OCO2
result: > 100 µM
